All values here come from ChEMBL document CHEMBL4334502.

Test system: Influenza A virus H3N2
Assay: Antiviral activity against influenza virus H3N2 infected in MDCK cells assessed as reduction in plague formation incubated for 72 hrs by immunofluorescence assay
Type: functional, organism-based
Assay Readout: pIC50
Worth noting: pIC50 values are minus log10 of concentrations stated in mol/L.

## Input Query (compound): `C=C/C(C)=C/C[C@H]1C(C)=CC[C@@H]2[C@]1(C)CCC[C@@]2(C)C(=O)O` ; field requested: pIC50
## Output 4.74
